As shown below, each of these binders has a reported Octet binding response value.
# testedTarget: T1, Unprocessed hMPV PreF trimer (human metapneumovirus, strain B2)
# T1 construct: also called Unprocessed hMPV WT PreF trimer; unprocessed hMPV PreF trimeric antigen
# measurementProtocol: BLI, mAb on anti-human Fc sensor
measurementKind: Octet binding response (nm)

• M2A03 (antibody, V domains shown, IgG) VH: QLQLQESGPGLVKPSETLSLTCSVSGGSISSSSNSWTWIRQPPGKGLEWIATIFYFGSTYYNPSLRSRVAISVDTSENQFSLKLTSVTAADTAVYFCARHILSSSGVSGWLDPWGQGTLVTVSS VL: SYELTQPPSVSVSPGQTASITCSGEKLGSKYAHWYQQKPGRSPVLVIYQDTKRPSGIPERFSGSNSGSTATLTISGTQAMDEADYYCQAWDSSSFVFGTGTTVTVL = 0.369
• M2B09 (antibody, V domains shown, IgG) VH: QVQLVQSGPEVKGPGASVRVSCKANGYTFTSYGINWVRQTPGQGLQWMGWISVHTDDTKDVQQFQDRVTMTTDTSTSTVFMELRNLRFDDTAVYYCARDRTDISGRVRDAFDLWGQGTLVTVSS VL: SYVLTQPPSVSVAPGQTAKITCGGNNIGSKSVHWYRQKPGQAPVLVVYDDSDRPSGIPERFSGSNSGNTATLTISRVEAGDEADYYCHVWDSYSDPNYVFGSGTKVTVL = 0.302
• M2C08 (antibody, V domains shown, IgG) VH: QVQLVQSGAEVKKPGASVIVSCRASGFTFSLYTMHWVRQAPGQGLEWMGWISADNSNTKYSQKYQDRVTITMDTSATTLFMEISSLRSEDTAVYYCTRGPAYYFDSSGFAFDIWGQGTLVTVSS VL: EIVLTQSPGTLSLSPGERATLSCRASQSVSRTYLGWYQQRPGLAPRLLIYGTSSRATGIPDRFSGSGSGTDFTLTISRLEPEDFATYYCQHFGSSLTFGGGTKVEIK = 0.415
• M2E08 (antibody, V domains shown, IgG) VH: EVQLVESGGDLVLPGGSLRLSCEASGFMFSSYAMNWVRQAPGKGLERVSGISGSGGNTYYADSVKGRFTISRDNSKNIVYLQMNSLRAEDTAVYYCAKDLGNDYFYYIDVWGKGTTVMVSS VL: QSVLTQPPSVSGAPGQRVTISCTGTNFNIGAGYDVQWYQQLPGAAPKLLIHGNTYRPSGVPDRFSGSKSGTSASLAITGLQAEDEADYYCQSYDSSLSMVFGGGTKLTVL = 0.349
• M2E01 (antibody, V domains shown, IgG) VH: QLQLQESGPGLVKPSETLSLTCTVSGGSISSSTYYWGWIRQPPGKGLEWIGTIYYSGSTDYNPSLKSRLTISVDTSKNQFSLRLRSVTAADTAVYYCARLVSPYDQFDYWGQGTLVTVSS VL: DIQMTQSPSSLSASVGDRVTITCRASQTITTYLSWYLQKPGKAPKLLIYAASSWQSGVPSRFSGSGSGTDFTLTISSLQPEDFATYYCQQSYSTPYTFGQGTKLEIK = 0.408
